These entries and their values trace back to patent US12064426B2.

- Target Desc: Recombinant ROCK2 (amino acids 5-554) (Homo sapiens)
- Construct: ROCK2 (amino acids 5-554); by word order, ROCK2 from SignalChem
- Sequence (O75116 5-554): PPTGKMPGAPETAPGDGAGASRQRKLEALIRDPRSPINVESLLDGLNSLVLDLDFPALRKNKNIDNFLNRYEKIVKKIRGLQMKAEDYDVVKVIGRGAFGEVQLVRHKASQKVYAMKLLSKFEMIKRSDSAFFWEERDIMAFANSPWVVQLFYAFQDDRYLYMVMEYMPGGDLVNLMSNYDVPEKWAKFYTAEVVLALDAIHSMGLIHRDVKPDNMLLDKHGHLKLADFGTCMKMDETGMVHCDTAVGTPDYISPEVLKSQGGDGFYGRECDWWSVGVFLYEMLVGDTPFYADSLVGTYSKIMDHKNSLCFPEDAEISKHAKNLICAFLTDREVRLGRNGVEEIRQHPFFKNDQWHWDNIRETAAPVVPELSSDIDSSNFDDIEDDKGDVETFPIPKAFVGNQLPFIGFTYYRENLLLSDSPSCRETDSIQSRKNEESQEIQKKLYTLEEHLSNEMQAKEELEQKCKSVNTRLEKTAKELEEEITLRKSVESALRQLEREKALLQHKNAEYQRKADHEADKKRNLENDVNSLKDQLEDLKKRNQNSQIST
- Method Notes: ROCK inhibition assay, LANCE Ultra TR-FRET kinase assay (ROCK2)
- Test Parameters: 4 μM ATP, 50 nM ULight-CREBtide substrate
pIC50: −log10 of the molar value.
Assay Metric: pIC50

Previously resolved entries follow.
- Compound: "C[C@H](c1cccc(C(=O)N(C)C)c1)n1cnc2cc(-c3ccnc(N)c3)ccc2c1=O [Compound 482]"
  Recorded Result: "< 6.30"
- Compound: "[2H]C([2H])([2H])NC(=O)c1cccc([C@@H](C)n2cnc3cc(-c4cn[nH]c4C(F)(F)F)ccc3c2=O)c1 [Compound 443]"
  Recorded Result: "> 8.00"
- Compound: "CNC(=O)c1cccc([C@@H](C)n2cnc3cc(-c4cn[nH]c4Cl)ccc3c2=O)c1 [Compound 466]"
  Recorded Result: "> 8.00"
- Compound: "Cc1nocc1-c1ccc2c(=O)n(C(CN)c3cccc(Cl)c3)cnc2c1 (centres unmarked) [Compound 497]"
  Recorded Result: "> 8.00"
- Compound: "NCC(c1cccc(C(N)=O)c1)n1cnc2cc(-c3ccnc(N)c3)ccc2c1=O (centres unmarked) [Compound 506]"
  Recorded Result: "6.30 to 7.00"
- Compound: "Cc1nocc1-c1ccc2c(=O)n(Cc3cccc(O)c3)ccc2c1 [Compound 10]"
  Recorded Result: "> 8.00"

Now consider the entry below.
Field pIC50 (entry CNC(=O)c1cc(F)cc(Cn2ccc3cc(-c4cn[nH]c4C(F)(F)F)ncc3c2=O)c1 [Compound 246] ) reads > 8.00

###

- Target Desc: Recombinant ROCK1 (amino acids 1-477) (Homo sapiens)
- Construct: Recombinant ROCK1 (amino acids 1-477); by word order, ROCK1 from Carna Biosciences
- Sequence (Q13464 1-477): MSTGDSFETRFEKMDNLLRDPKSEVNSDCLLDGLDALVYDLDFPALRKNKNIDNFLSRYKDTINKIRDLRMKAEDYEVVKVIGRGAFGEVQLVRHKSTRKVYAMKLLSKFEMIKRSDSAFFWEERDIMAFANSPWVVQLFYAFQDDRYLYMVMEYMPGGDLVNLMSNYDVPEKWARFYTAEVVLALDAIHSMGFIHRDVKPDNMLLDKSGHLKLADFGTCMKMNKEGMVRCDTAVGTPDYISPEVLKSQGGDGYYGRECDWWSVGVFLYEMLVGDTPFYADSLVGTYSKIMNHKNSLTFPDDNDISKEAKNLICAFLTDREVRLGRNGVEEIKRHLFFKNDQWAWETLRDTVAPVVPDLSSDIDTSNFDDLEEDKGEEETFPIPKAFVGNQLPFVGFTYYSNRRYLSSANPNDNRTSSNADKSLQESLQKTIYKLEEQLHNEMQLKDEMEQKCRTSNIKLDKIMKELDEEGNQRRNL
- Method Notes: ROCK inhibition assay, LANCE Ultra TR-FRET kinase assay (ROCK1)
- Test Parameters: 1 μM ATP, 50 nM ULight-CREBtide substrate
pIC50: −log10 of the molar value.
Assay Metric: pIC50

Previously resolved entries follow.
- Compound: "CC(=O)Nc1cccc(Cn2ccc3cc(-c4ccoc4C)ccc3c2=O)c1"
  Target Desc: "Recombinant ROCK1 (amino acids 1-477) (Homo sapiens)"
  pIC50: "< 6.30"
- Compound: "Nc1cc(-c2ccc3c(=O)n(Cc4cccc(C(=O)NC5COC5)c4)cnc3c2)ccn1"
  Target Desc: "Recombinant ROCK1 (amino acids 1-477) (Homo sapiens)"
  pIC50: "6.30 to 7.00"
- Compound: "CNC(=O)c1cccc([C@@H](C)n2cnc3cc(-c4conc4C)ccc3c2=O)c1"
  Target Desc: "Recombinant ROCK1 (amino acids 1-477) (Homo sapiens)"
  pIC50: "7.00 to 7.96"
- Compound: "Cc1nocc1-c1ccc2c(=O)n(Cc3cccc(C(=O)NCC4CC4)c3)ccc2c1"
  Target Desc: "Recombinant ROCK1 (amino acids 1-477) (Homo sapiens)"
  pIC50: "7.00 to 7.96"
- Compound: "O=C(N[C@H]1CC[C@@H](O)CC1)c1cccc(Cn2ccc3cc(N4CCOCC4)ccc3c2=O)c1"
  Target Desc: "Recombinant ROCK1 (amino acids 1-477) (Homo sapiens)"
  pIC50: "< 6.30"

Field pIC50 (entry "Cc1nocc1-c1ccc2c(=O)n(Cc3cccc(NC(=O)C4COC4)c3)ccc2c1" ) reads 7.00 to 7.96

Field pIC50 (entry "[2H]C([2H])([2H])NC(=O)c1cccc(Cn2cnc3cc(-c4cn[nH]c4C(F)(F)F)ccc3c2=O)c1" ) reads 7.00 to 7.96

Field pIC50 (entry "Nc1cc(-c2ccc3c(=O)n(Cc4cccc(C(=O)Nc5ncc[nH]5)c4)ccc3c2)ccn1" ) reads < 6.30

Field pIC50 (entry "O=C(NC1CCNCC1)c1cccc(Cn2cnc3cc(-c4cn[nH]c4Cl)ccc3c2=O)c1" ) reads > 8.00

Field pIC50 (entry "Cc1nocc1-c1ccc2c(=O)n([C@H](C)c3cccc(C(=O)NCC4CCNCC4)c3)cnc2c1" ) reads > 8.00

Field pIC50 (entry "COc1cccc([C@@H](CO)N2CNc3cc(-c4cn[nH]c4C(F)(F)F)ccc3C2=O)c1" ) reads < 6.30

Field pIC50 (entry "CNC(=O)c1cccc(Cn2cnc3cc(-c4cn[nH]c4C(F)(F)F)ccc3c2=O)c1" ) reads 7.00 to 7.96

Field pIC50 (entry "Cc1nocc1-c1ccc2c(=O)n(Cc3cccc(C(=O)Nc4ccn(C)n4)c3)ccc2c1" ) reads < 6.30

Field pIC50 (entry "CNC(=O)c1cccc(Cn2ccc3cc(-c4c[nH]nc4Cl)ncc3c2=O)c1" ) reads 7.00 to 7.96

Field pIC50 (entry CC(c1cccc(O)c1)n1ccc2cc(-c3c[nH]nc3Cl)ccc2c1=O (stereo not shown) ) reads 7.00 to 7.96

Field pIC50 (entry "CN1CCC(NC(=O)c2cccc(Cn3cnc4cc(-c5ccnn5C)ccc4c3=O)c2)CC1" ) reads 7.00 to 7.96
